- subject.of.test: PanK3 (Homo sapiens, UniProt Q9H999)
- Sequence (Q9H999 whole entry): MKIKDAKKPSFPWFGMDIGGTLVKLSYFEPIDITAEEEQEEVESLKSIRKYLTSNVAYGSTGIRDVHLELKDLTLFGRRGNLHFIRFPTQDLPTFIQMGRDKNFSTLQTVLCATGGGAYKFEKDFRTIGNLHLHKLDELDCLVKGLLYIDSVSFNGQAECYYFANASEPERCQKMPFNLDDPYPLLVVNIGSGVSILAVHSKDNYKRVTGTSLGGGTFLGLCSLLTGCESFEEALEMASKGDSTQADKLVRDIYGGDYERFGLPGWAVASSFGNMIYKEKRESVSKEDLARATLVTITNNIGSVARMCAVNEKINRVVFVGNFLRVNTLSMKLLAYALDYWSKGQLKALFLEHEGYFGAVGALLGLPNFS
- method.summary: PanK3 high-throughput screen, two-step luminescence
- Format: biochemical
Structures can show the parent of a compound that is named as a salt.
reported.property: pIC50
Give bare numbers, as −log10 of the molar value.

[[record]]
compound = "COc1ccc(Cl)cc1C(=O)NCCc1ccc(S(=O)(=O)NC(=O)NC2CCCCC2)cc1 [Glyburide]"
reported_property = "pIC50"
reported = 5.17


Provide pIC50 values for the following items, in order.
1. O=C1C(Cl)=C(Cl)C(=O)C(Cl)=C1Cl
2. Oc1c(Cl)cc(Cl)c(Cl)c1Cc1c(O)c(Cl)cc(Cl)c1Cl

stdout:
[5.23, 5.06]

List pIC50 for every entry below, keeping the order given.
1. CN[C@@H](C)[C@H](O)c1ccccc1 [Ephedrine hydrochloride]
2. Cc1c(Cl)cccc1Nc1ccccc1C(=O)O
3. Cc1cnc(C(=O)NCCc2ccc(S(=O)(=O)NC(=O)NC3CCCCC3)cc2)cn1 [Glipizide]
4. CCc1ccc(CCOc2ccc(CC3SC(=O)NC3=O)cc2)nc1 (stereo not drawn) [Pioglitazone hydrochloride]
5. CC1(C)[C@@H](O)CC[C@]2(C)[C@H]3C(=O)C=C4[C@H]5C[C@@](C)(C(=O)O)CC[C@]5(C)CC[C@@]4(C)[C@]3(C)CC[C@@H]12
6. CC(=O)O[C@H]1C[C@@]2(C)[C@@H](C[C@@H](O)[C@H]3[C@@]4(C)CC[C@@H](O)[C@@H](C)[C@@H]4CC[C@@]32C)/C1=C(\CCC=C(C)C)C(=O)O

stdout:
[5.80, 5.04, 5.28, 6.00, 5.44, 7.00]
